STUDY SYSTEM: T1, Chryseobacterium sp-62563 deamidase polypeptide (second polypeptide, deamidase domain), wildtype (Chryseobacterium sp-62563)
T1 sequence: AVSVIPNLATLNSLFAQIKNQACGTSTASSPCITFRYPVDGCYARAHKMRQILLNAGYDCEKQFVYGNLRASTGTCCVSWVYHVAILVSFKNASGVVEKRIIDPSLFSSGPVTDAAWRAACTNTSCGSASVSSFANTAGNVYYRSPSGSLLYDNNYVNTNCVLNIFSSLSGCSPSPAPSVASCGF
PROTOCOL NOTES: cell-based or functional assay
TEST READOUT: Relative activity of maturated deamidase (% initial rate)

BINDER	MEASUREMENT
Chryseobacterium sp-62563 propeptide V98K (protein) NQDPNLVAKESNETAMKDFGKTVPVGIEKEDGKFKISFMVTAQPYEIKDSKENAAYISMIKTAVENETPIHVFLKANTNEIAKVDKATDDDIRYFKSKFTKEVKEENRK	> 100
Chryseobacterium sp-62563 propeptide K96E (protein) NQDPNLVAKESNETAMKDFGKTVPVGIEKEDGKFKISFMVTAQPYEIKDSKENAAYISMIKTAVENETPIHVFLKANTNEIAKVDKATDDDIRYFESVFTKEVKEENRK	> 100

Now for another entry.
For reference, reported Relative activity of maturated deamidase (% initial rate) for Chryseobacterium sp-62563 propeptide V98G (protein) NQDPNLVAKESNETAMKDFGKTVPVGIEKEDGKFKISFMVTAQPYEIKDSKENAAYISMIKTAVENETPIHVFLKANTNEIAKVDKATDDDIRYFKSGFTKEVKEENRK stands at > 100

Values were extracted from patent US20250215412A1.
